# tested_on: furin, P09958
# Sequence (P09958 whole entry): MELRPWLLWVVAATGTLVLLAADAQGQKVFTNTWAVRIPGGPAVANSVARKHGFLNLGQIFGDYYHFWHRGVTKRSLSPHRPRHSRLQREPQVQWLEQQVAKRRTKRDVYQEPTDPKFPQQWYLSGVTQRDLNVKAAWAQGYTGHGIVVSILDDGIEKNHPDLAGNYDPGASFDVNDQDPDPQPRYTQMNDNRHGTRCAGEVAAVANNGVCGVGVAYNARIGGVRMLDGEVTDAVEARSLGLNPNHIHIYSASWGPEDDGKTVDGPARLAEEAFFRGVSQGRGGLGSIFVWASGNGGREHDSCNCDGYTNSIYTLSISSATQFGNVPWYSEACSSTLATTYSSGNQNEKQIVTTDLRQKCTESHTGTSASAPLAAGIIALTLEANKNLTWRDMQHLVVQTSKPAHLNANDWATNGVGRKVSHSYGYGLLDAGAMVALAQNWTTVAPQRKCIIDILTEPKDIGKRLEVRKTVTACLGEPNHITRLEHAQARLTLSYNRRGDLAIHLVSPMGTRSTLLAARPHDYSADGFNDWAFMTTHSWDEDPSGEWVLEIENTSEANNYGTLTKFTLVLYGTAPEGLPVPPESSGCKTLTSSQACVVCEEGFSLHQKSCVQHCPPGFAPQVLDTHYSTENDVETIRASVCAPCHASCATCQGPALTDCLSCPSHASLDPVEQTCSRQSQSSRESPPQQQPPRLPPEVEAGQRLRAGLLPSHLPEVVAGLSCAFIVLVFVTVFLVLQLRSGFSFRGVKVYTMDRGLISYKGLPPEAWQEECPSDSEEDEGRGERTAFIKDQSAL
# assay_explanation: furin cleavage Z-score vs untreated control; higher = more cleavage, active = 3.5 or more, inactive = 1 or less, 8 variable residues between constant flanks;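 note: purified furin at 1:10 enzyme:substrate in 50 mM HEPES pH 7.5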
# condition_details: 30 min
The list shows a part of the results. The hit rate among all sequences tested is not known here.
Heads up, the class ranges for furin cleavage Z-score are range A = under -0.2, range B = from -0.2 up to 1, range C = 1 and over

* CAADLMGYIPAGNASASA [HC226] | range B
* CARLRRSLSPAGNASASA [FS-2352] | range C
* CAGKPRVRKSAGNASASA [FS-160] | range C
* CARRSRDVSCAGNASASA [FS-2519] | range C
* CALHTPGCVPAGNASASA [HC271] | range B
* CARLRRSLPPAGNASASA [FS-2280] | range C
* CAVVCCSQSYAGNASASA [HC2062] | range B
* CARLRRVKTAAGNASASA [FS-1746] | range A
* CAQSLRQRKSAGNASASA [FS-915] | range B
* CAPAEILRKSAGNASASA [HC1296] | range A
* CAGSVTVPHPAGNASASA [HC837] | range B
* CACPGRPWKSAGNASASA [FS-645] | range A
* CARLRRQKKGAGNASASA [FS-916] | range A

FYI, the data here is from the supplement of paper PMC3545927.
